molecular target: human RXFP1 (Homo sapiens); test: RXFP1 Hu cAMP (Test A); format: cell-based; set-up: expressed in transfected cells; host or cells: Jump-In T-REx CHO-K1 cells (ThermoFisher), induced with 10 ng/ml doxycycline for 24 h; conditions: RXFP1 Hu cAMP
Measured attribute: Test A Sinf (%)

[
  {
    "Compound": "COc1cc(F)c(O[C@H]2CC[C@@](C)(C(=O)O)CC2)cc1C(=O)N[C@@H]1CCC[C@@H]1C(=O)N[C@@H](C)C(C)C",
    "Experimental value": 100
  },
  {
    "Compound": "Cc1cc(F)c(O[C@H]2CC[C@@](C)(C(=O)O)CC2)cc1C(=O)N[C@@H]1[C@H]2CC[C@H](C2)[C@@H]1C(=O)NCC1(C)CCC1",
    "Experimental value": 85
  },
  {
    "Compound": "COc1cc(F)c(-c2ccc(C(=O)O)cc2)cc1C(=O)N[C@H]1[C@@H](C(=O)Nc2ccc(F)c(C#N)c2)[C@@H]2C=C[C@H]1C2 (racemic)",
    "Experimental value": 80
  },
  {
    "Compound": "COc1cc(F)c(O[C@H]2CC[C@@H](C(=O)O)CC2)cc1C(=O)NC1C(C(=O)NCCCC(F)(F)F)[C@@H]2CC[C@H]1C2 (stereo partly drawn)",
    "Experimental value": 100
  }
]

1: COc1cc(C#N)c(O[C@H]2CC[C@@](C)(C(=O)O)CC2)cc1C(=O)N[C@@H]1[C@H]2CC[C@H](C2)[C@@H]1C(=O)NCC1CCC(C#N)CC1 (stereo partly drawn)
2: COc1cc(F)c(-c2ccc(C(=O)O)cc2)cc1C(=O)N[C@@H]1[C@H]2CC[C@H](C2)[C@@H]1C(=O)Nc1ccc(S(F)(F)(F)(F)F)cc1
-- ask Please let me know which one, 1 or 2 , has a lower measured Test A Sinf value. To answer, give the label that identifies your chosen option.
-- reply 2

I: COc1cc(C#N)c(O[C@H]2CC[C@@H](C(=O)O)CC2)cc1C(=O)N[C@@H]1[C@H]2CC[C@H](C2)[C@@H]1C(=O)Nc1cccc(S(=O)(=O)C(F)(F)F)c1
II: COc1cc(F)c(-c2nc(C(=O)O)cs2)cc1C(=O)N[C@H]1[C@@H](C(=O)Nc2cccc(S(=O)(=O)C(F)(F)F)c2)[C@@H]2C=C[C@H]1C2 (racemic)
-- ask Please let me know which one, I or II , has a lower measured Test A Sinf value. To answer, give the label that identifies your chosen option.
-- reply II

a: COc1cc(F)c(OC[C@H]2C[C@@H](C(=O)O)C2)cc1C(=O)N[C@@H]1[C@@H]2CC[C@@H](C2)[C@@H]1C(=O)Nc1cccc(S(=O)(=O)C(F)(F)F)c1
b: COc1cc(F)c(-c2ccc(C(=O)O)nc2)cc1C(=O)N[C@H]1[C@@H](C(=O)Nc2cccc(S(=O)(=O)C(F)(F)F)c2)[C@@H]2C=C[C@H]1C2 (racemic)
-- ask Please let me know which one, a or b , has a lower measured Test A Sinf value. To answer, give the label that identifies your chosen option.
-- reply b

---

Molecular target: human RXFP1 (Homo sapiens, UniProt Q9HBX9)
Sequence (Q9HBX9 1-757): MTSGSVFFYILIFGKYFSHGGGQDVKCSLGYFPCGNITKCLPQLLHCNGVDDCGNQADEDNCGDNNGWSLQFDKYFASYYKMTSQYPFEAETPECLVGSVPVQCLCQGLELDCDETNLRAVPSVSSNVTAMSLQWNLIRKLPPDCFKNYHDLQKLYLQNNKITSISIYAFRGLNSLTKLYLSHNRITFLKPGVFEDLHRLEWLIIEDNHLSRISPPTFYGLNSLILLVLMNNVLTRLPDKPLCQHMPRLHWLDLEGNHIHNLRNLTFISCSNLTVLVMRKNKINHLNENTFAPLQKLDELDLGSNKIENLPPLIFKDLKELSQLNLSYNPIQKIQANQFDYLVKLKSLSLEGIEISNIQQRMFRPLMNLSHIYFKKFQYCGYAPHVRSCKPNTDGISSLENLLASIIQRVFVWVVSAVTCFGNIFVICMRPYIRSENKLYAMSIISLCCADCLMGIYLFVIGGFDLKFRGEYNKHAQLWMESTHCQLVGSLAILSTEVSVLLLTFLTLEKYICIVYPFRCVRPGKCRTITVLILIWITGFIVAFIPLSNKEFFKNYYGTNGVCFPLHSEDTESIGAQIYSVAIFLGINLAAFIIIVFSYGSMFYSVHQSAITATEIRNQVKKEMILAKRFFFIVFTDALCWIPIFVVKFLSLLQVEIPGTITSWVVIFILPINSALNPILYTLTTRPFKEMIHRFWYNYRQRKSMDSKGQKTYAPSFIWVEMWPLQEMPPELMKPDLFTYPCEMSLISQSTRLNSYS
Experiment: RXFP1 Hu cAMP (Test A)
Assay type: cell-based
Design: expressed in transfected cells; host or cells: Jump-In T-REx CHO-K1 cells (ThermoFisher), induced with 10 ng/ml doxycycline for 24 h
Conditions: RXFP1 Hu cAMP
Measured attribute: Test A Sinf (%)

[
  {
    "Molecule": "COc1cc(F)c(O[C@H]2CC[C@@H](C(=O)O)CC2)cc1C(=O)N[C@@H]1[C@H]2CC[C@H](C2)[C@@H]1C(=O)Nc1ccc(F)c(OC(F)(F)F)c1",
    "Measure unit": "%",
    "Test A Sinf": 110
  },
  {
    "Molecule": "COc1cc(F)c(O[C@H]2CC[C@@](C)(C(=O)O)CC2)cc1C(=O)N[C@@H]1COCC[C@@H]1C(=O)Nc1ccc(F)c(S(F)(F)(F)(F)F)c1 (racemic)",
    "Measure unit": "%",
    "Test A Sinf": 113
  },
  {
    "Molecule": "COc1ccc(O[C@H]2CC[C@@H](C(=O)O)CC2)cc1C(=O)N[C@@H]1[C@H]2CC[C@H](C2)[C@@H]1C(=O)Nc1cccc(S(=O)(=O)C(F)(F)F)c1",
    "Measure unit": "%",
    "Test A Sinf": 106
  },
  {
    "Molecule": "COc1cc(C#N)c(O[C@H]2CC[C@@](C)(C(=O)O)CC2)cc1C(=O)N[C@@H]1[C@H]2CC[C@H](C2)[C@@H]1C(=O)NCC1C(C)(C)C1(C)C",
    "Measure unit": "%",
    "Test A Sinf": 112
  },
  {
    "Molecule": "COc1cc(F)c(O[C@H]2CC[C@@](C)(C(=O)O)CC2)cc1C(=O)N[C@@H]1[C@H]2CC[C@H](C2)[C@@H]1C(=O)N[C@@H](C)C(C)(C)C#N",
    "Measure unit": "%",
    "Test A Sinf": 101
  }
]
